Data credit: patent US5548064A

Please go through the items and note down their IF Affinity.
Target: intrinsic factor (IF) (Homo sapiens, UniProt P27352)
Sequence (P27352 19-417, species assumed): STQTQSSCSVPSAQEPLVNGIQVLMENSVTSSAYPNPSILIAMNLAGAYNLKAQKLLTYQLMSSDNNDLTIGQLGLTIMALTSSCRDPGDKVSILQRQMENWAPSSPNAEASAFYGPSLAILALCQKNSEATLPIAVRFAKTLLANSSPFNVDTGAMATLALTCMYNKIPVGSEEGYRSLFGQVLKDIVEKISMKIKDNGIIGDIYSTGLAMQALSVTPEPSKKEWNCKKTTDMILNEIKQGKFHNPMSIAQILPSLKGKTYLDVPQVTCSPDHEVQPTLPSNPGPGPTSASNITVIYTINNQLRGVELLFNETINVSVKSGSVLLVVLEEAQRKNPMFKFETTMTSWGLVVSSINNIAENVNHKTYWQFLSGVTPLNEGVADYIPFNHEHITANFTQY
Assay: Relative intrinsic factor (IF) affinity of eVB12 analogues and complexes
Assay type: binding
Settings: percentage of the affinity of the eVB12 derivative relative to native, unmodified VB12
The response must be a number in % with no trailing unit.

Using the record for GCSF-diothloproplonamido12-aminododecyl-suberyl-hexylamido-eVB12 (conjugate, UniProt P09919 31-207, looked up, disulphide-linked dodecylsuberylhexyl vitamin B12 conjugate, GCSF linked by disulphide to DTP-dodecylsuberylhexyl-eVB12 (section 1.9)) Granulocyte …: TPLGPASSLPQSFLLKCLEQVRKIQGDGAALQEKLVSECATYKLCHPEELVLLGHSLGIPWAPLSSCPSQALQLAGCLSQLHSGLFLYQGLLQALEGISPELGPTLDTLQLDVADFATTIWQQMEELGMAPALQPTQGAMPAFASAFQRRAGGVLVASHLQSFLEVSYRVLRHLAQP , report its IF Affinity.
28

Using the record for GCSF-acyl[adipyldihydrazidyl]-eVB12 (conjugate, UniProt P09919 31-207, looked up, adipyl-dihydrazide vitamin B12 conjugate, EDAC-mediated conjugate of adipylhydrazido-eVB12 with GCSF (section 1.12)) Granulocyte …: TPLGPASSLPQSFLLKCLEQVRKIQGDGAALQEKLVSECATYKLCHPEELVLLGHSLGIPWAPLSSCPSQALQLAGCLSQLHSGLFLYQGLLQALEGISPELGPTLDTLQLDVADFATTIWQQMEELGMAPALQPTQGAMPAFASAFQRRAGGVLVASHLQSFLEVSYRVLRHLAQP , report its IF Affinity.
7

Using the record for GCSF-dithioproplonamido[12-aminododecylamido]-eVB12 (conjugate, UniProt P09919 31-207, looked up, disulphide-linked aminododecyl vitamin B12 conjugate, GCSF linked by disulphide at Cys-17 to DTP-aminododecyl-eVB12 (section 1.7)) Granulocyte …: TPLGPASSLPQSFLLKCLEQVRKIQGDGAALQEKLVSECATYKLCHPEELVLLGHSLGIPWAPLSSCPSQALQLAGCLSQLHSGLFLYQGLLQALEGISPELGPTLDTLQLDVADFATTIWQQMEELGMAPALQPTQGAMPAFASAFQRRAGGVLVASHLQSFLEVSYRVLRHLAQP , report its IF Affinity.
3
